Biological target: FZD7 cysteine-rich domain (CRD), MYC-tagged and GPI-anchored on CHO cells (human, UniProt O75084 45-169)
Test: flow cytometry, CHO-CRD cells;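 note: flow cytometry of Fab binding to CHO cells overexpressing a Frizzled CRD, with binding defined as median fluorescence over twice that of CHO cells lacking any Frizzled CRD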
Hi! Just check whether median fluorescence is below 5. Below gives Satisfied, equal or above gives Not satisfied.

# check: median fluorescence < 5 for Fab-2932 (Fab, V domains shown, Fab; also called Fv-2932) VH: EVQLVESGGGLVQPGGSLRLSCAASGFNISYSYMHWVRQAPGKGLEWVASIYSSYSSTSYADSVKGRFTISADTSKNTAYLQMNSLRAEDTAVYYCARGALDYWGQGTLVTVSS VL: DIQMTQSPSSLSASVGDRVTITCRASQSVSSAVAWYQQKPGKAPKLLIYSASSLYSGVPSRFSGSRSGTDFTLTISSLQPEDFATYYCQQWYGSFALITFGQGTKVEIK
Not satisfied

Determine if Fab-2918 (Fab, V domains shown, Fab; also called Fv-2918) VH: EVQLVESGGGLVQPGGSLRLSCAASGFNLSYSSIHWVRQAPGKGLEWVASIYSSYSSTSYADSVKGRFTISADTSKNTAYLQMNSLRAEDTAVYYCARFGYWAIDYWGQGTLVTVSS VL: DIQMTQSPSSLSASVGDRVTITCRASQSVSSAVAWYQQKPGKAPKLLIYSASSLYSGVPSRFSGSRSGTDFTLTISSLQPEDFATYYCQQAFGASLFTFGQGTKVEIK shows median fluorescence strictly lower than 5.
Not satisfied

Confirm or reject: median fluorescence of Fab-2901 (Fab, V domains shown, Fab; also called Fv-2901) VH: EVQLVESGGGLVQPGGSLRLSCAASGFNISYSYMHWVRQAPGKGLEWVASIYSYSSYTYYADSVKGRFTISADTSKNTAYLQMNSLRAEDTAVYYCARSWYYWSPSSGMDYWGQGTLVTVSS VL: DIQMTQSPSSLSASVGDRVTITCRASQSVSSAVAWYQQKPGKAPKLLIYSASSLYSGVPSRFSGSRSGTDFTLTISSLQPEDFATYYCQQGGFLITFGQGTKVEIK lies strictly below 5
Not satisfied

Does the reported median fluorescence of the following binder sit strictly below 5? Fab-2919 (Fab, V domains shown, Fab) VH: EVQLVESGGGLVQPGGSLRLSCAASGFNISYSYIHWVRQAPGKGLEWVASIYSSSGSTSYADSVKGRFTISADTSKNTAYLQMNSLRAEDTAVYYCARGAIDYWGQGTLVTVSS VL: DIQMTQSPSSLSASVGDRVTITCRASQSVSSAVAWYQQKPGKAPKLLIYSASSLYSGVPSRFSGSRSGTDFTLTISSLQPEDFATYYCQQWYSSGHVLITFGQGTKVEIK
Satisfied

Data origin: patent US20210253718A1
